experimental_system: R132C IDH1 (Homo sapiens, UniProt O75874, R132C)
Sequence (O75874 whole entry R132C): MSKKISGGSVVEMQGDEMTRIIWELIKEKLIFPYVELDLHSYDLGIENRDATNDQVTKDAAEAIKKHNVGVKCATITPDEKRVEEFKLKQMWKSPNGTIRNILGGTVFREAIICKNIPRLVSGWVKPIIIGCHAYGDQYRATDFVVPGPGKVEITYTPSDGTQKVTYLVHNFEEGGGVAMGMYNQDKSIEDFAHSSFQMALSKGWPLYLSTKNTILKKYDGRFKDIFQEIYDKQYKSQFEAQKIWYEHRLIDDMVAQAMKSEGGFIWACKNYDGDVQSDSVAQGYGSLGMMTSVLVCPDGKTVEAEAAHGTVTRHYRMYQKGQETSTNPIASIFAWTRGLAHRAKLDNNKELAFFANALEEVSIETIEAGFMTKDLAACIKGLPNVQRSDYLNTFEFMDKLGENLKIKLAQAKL
measurement_protocol: Enzyme inhibition of R132C mutant IDH1
Ki: recorded values

query_smiles: Cc1ccc(S(=O)(=O)Nc2cc(Br)c(O)c3ccccc23)cc1
experimental_system: R132C IDH1 (Homo sapiens, UniProt O75874, R132C)
result_value: > 50 µM

QUERY: Give Ki for O=S(=O)(Nc1cc(Br)c(O)c2ccccc12)c1ccc(Br)cc1
RESULT: > 50 µM

QUERY: Provide Ki value for the following compound: O=S(=O)(Nc1cc(Br)c(O)c2ccccc12)c1ccc(-c2ccccc2)cc1
RESULT: 36 µM

QUERY: Given O=S(=O)(Nc1cc(Br)c(O)c2ccccc12)c1ccc2ccccc2c1 , respond with its Ki.
RESULT: > 50 µM

* * *

experimental_system: IDH1(R132H) (Homo sapiens, UniProt O75874, R132H)
Sequence (O75874 whole entry R132H): as the sequence (O75874 whole entry R132C) above, with C132H counted along it
measurement_protocol: IDH1
pKi: −log10 of the molar value.
value_type: pKi

Solved entries:
query_smiles: O=S(=O)(Nc1cc(Br)c(O)c2ccccc12)c1ccc(-c2ccccc2)cc1
result_value: 6.22
//
query_smiles: O=S(=O)(Nc1cc(Oc2ccccc2)c(O)c2ccccc12)c1ccc(Br)cc1
result_value: 5.09
//
query_smiles: Cc1ccc(S(=O)(=O)Nc2ccc(O)c3ccccc23)cc1
result_value: 5.17

A = O=S(=O)(Nc1cc(Br)c(O)c2ccccc12)c1ccc(Br)cc1
B = O=S(=O)(Nc1cc(Br)c(O)c2ccccc12)c1ccc2ccccc2c1
C = O=S(=O)(Nc1cccc(Br)c1)c1ccc(Br)cc1
D = O=S(=O)(Nc1ccc(F)c(Cl)c1)c1ccc(Br)cc1
QUERY: Sort the compounds on pKi; start with the lowest figure. Write the labels in rank order as requested.
RESULT: D, C, A, B

* * *

experimental_system: IDH1(R132H) (Homo sapiens, UniProt O75874, R132H)
measurement_protocol: IDH1
Type: biochemical
condition_details: compound screening at 50 μM
value_type: Inhibitory activity against IDH1(R132H), in words

compound: Cc1ccc(-c2cc(NS(=O)(=O)c3ccc(C)cc3)c3ccccc3c2O)cc1
result_value: inactive

compound: O=S(=O)(Nc1ccccc1)c1ccc(Br)cc1 [Compound 19, 4-bromo-N-phenylbenzenesulfonamide]
result_value: inactive

compound: O=S(=O)(Nc1cc(-c2ccc3ccccc3c2)c(O)c2ccccc12)c1ccc(Br)cc1
result_value: inactive

* * *

experimental_system: IDH1(R132H) (Homo sapiens, UniProt O75874, R132H)
measurement_protocol: IDH1
pKi: −log10 of the molar value.
value_type: pKi

Here is how some compounds turned out for pKi.
compound: O=S(=O)(Nc1ccc(O)c2ccccc12)c1ccccc1 [Compound 13]
value_type: pKi
result_value: 4.95

compound: O=S(=O)(Nc1ccc(O)cc1)c1ccc(Br)cc1 [Compound 17]
value_type: pKi
result_value: 5.14

P = O=P(O)(O)CCc1cc(NS(=O)(=O)c2ccc(Br)cc2)c2ccccc2c1O [Compound 6]
Q = COc1ccc(S(=O)(=O)Nc2cc(CCC(=O)O)c(O)c3ccccc23)cc1 [Compound 7]
R = O=C(O)CCc1cc(NS(=O)(=O)c2ccc(Br)cc2)c2ccccc2c1O [Compound 5]
QUERY: Arrange these compounds by their pKi, starting with the largest number. Give your ranking as a list of the labels in the requested order.
RESULT: P, Q, R
(P: 5.62, Q: 4.99, R: 4.76)
